- TARGET_OR_SYSTEM: T1, ZIKV-VLP (Native Antigen Inc.) (Zika virus)
- T1 construct: also called Zika VLP; ZVLP
- PROTOCOL_NOTES: BLI (Octet), supernatant IgG captured on Protein A biosensor, ZIKV-VLP 3.3 µg/mL in solution, 1:1 model
# koff listing for each entry below

Below, each entry is followed by its recorded koff result.
>>> recorded_value("anti-ZIKV antibody 306-2 (antibody, V domains shown) VH: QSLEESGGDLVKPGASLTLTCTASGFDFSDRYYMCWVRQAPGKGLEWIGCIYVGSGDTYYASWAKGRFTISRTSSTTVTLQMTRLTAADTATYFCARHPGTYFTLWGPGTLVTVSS VL: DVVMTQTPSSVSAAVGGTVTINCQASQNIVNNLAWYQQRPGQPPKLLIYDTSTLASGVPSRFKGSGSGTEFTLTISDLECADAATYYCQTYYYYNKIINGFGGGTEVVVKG")
"< 1e-07 s⁻¹"
>>> recorded_value("anti-ZIKV antibody 242-3 (antibody, V domains shown, also called clone 242-3) VH: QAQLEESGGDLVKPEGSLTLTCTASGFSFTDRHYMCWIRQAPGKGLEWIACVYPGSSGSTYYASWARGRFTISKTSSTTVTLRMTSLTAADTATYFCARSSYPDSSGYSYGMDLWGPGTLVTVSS VL: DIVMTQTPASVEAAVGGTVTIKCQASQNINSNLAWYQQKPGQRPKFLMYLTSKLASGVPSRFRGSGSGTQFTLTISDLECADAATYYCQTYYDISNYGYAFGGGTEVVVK")
"< 1e-07 s⁻¹"
>>> recorded_value("anti-ZIKV antibody 11-3 (antibody, V domains shown, also called clone 11-3) VH: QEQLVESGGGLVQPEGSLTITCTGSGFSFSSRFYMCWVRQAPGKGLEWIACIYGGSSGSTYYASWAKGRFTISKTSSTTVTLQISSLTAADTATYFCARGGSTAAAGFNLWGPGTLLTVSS VL: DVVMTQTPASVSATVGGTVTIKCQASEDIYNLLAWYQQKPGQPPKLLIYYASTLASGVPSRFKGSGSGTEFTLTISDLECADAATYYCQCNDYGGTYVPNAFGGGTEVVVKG")
"< 1e-07 s⁻¹"

Attention now turns to another entry.
Quickly give me recorded koff for anti-ZIKV antibody 289-3 (antibody, V domains shown, also called clone 289-3; subclone 289-3) VH: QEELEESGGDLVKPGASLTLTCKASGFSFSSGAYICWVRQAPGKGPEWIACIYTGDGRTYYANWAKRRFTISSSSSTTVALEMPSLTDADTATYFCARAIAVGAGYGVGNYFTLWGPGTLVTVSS VL: DIVMTQTPSSVSAAVGGTVTINCHASENIYGYLSWYQQKPGQPPKLLIYKASTLASGVPSRFKGSGAGTQFTLTITALECADAATYYCQSYYTSSSNADGSENAFGGGTEVVVEG
0.000113 s⁻¹

Numbers sourced from patent US20220332800A1.
